target_under_test: human ether-à-go-go-related gene (hERG) potassium channel (human)
Sequence (Q12809 whole entry, looked up): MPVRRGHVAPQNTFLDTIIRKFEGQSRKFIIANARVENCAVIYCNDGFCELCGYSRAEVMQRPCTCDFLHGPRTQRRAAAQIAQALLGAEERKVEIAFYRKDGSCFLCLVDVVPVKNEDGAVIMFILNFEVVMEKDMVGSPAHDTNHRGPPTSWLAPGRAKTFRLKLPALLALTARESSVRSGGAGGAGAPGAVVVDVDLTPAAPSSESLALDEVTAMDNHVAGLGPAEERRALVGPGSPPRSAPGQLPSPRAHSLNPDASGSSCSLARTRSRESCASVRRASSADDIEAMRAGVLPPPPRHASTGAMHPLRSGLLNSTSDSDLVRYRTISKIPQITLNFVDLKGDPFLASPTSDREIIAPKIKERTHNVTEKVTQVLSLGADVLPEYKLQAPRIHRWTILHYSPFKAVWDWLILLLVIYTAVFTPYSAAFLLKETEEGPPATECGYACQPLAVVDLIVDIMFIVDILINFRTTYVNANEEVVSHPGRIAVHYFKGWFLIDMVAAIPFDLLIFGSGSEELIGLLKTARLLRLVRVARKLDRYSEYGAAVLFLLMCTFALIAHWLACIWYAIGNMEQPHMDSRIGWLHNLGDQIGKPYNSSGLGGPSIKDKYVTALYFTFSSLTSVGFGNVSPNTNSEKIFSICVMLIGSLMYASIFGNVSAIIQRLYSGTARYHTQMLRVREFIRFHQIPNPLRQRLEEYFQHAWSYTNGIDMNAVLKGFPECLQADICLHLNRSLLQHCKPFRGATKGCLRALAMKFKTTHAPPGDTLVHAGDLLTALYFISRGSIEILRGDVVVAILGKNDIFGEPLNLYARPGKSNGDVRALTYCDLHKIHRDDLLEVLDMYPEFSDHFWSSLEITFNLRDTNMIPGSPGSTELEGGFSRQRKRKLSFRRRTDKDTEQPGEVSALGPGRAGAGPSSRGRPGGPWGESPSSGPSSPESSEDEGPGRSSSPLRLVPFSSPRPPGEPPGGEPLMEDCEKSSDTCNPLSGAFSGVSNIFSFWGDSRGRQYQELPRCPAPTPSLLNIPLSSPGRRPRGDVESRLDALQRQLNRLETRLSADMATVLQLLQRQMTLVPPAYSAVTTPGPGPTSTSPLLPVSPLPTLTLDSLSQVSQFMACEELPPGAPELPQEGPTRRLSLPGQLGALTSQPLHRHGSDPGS
assay_explanation: primary screen, population patch clamp on CHO cells stably expressing hERG; higher = less effect of the substance
Screen size: about 310,000 compounds; about 14,000 (4.5%) showed an effect of 50% or more. Effects have a minus sign here. The list comes from a sample in which strong results are over-represented; it also holds close analogues and randomly drawn compounds.
Catalogue of compounds with associated hERG current change (%, negative = inhibition) at 10uM
readout_type: hERG current change (%, negative = inhibition) at 10uM (%)

compound: O=C(N/N=C/c1ccc[nH]1)c1ccc(COc2cccc3cccnc23)cc1
target_under_test: human ether-à-go-go-related gene (hERG) potassium channel (human)
units_of_measure: %
observed_measurement: -58.3

compound: C=CCNC(=O)c1onc(CS(=O)(=O)c2cc(C)cc(C)c2)c1C(=O)NCC=C
target_under_test: human ether-à-go-go-related gene (hERG) potassium channel (human)
units_of_measure: %
observed_measurement: -8.18

compound: CCC(=O)Oc1ccc2c(C)cc(=O)oc2c1C
target_under_test: human ether-à-go-go-related gene (hERG) potassium channel (human)
units_of_measure: %
observed_measurement: 0.0333

compound: CN1CCN(c2ccc(-c3cccc(NC(=O)COc4ccc(Cl)cc4)c3)nn2)CC1
target_under_test: human ether-à-go-go-related gene (hERG) potassium channel (human)
units_of_measure: %
observed_measurement: -50.7

compound: O=C(COC(=O)/C=C/c1ccc(Cl)cc1)NC1CCCCCC1
target_under_test: human ether-à-go-go-related gene (hERG) potassium channel (human)
units_of_measure: %
observed_measurement: -1.22

compound: COc1ccc(CCN2CCCC(CN(C)Cc3cccc(OC)c3)C2)cc1 (centres unmarked)
target_under_test: human ether-à-go-go-related gene (hERG) potassium channel (human)
units_of_measure: %
observed_measurement: -60.6

compound: COc1ccccc1NC(=O)NCC(c1ccco1)N1CCCCC1 (centres unmarked)
target_under_test: human ether-à-go-go-related gene (hERG) potassium channel (human)
units_of_measure: %
observed_measurement: 14.8

compound: COc1ccc(CN(C)CC2CCCN(CCc3ccccc3C)C2)cc1O (centres unmarked)
target_under_test: human ether-à-go-go-related gene (hERG) potassium channel (human)
units_of_measure: %
observed_measurement: -53.8

compound: CCOc1ccc(C(=O)Nc2ncn[nH]2)cc1
target_under_test: human ether-à-go-go-related gene (hERG) potassium channel (human)
units_of_measure: %
observed_measurement: 19.1

compound: CC(=O)c1c(C(C)=O)c(C)n(NC(=O)c2ccncc2)c1C
target_under_test: human ether-à-go-go-related gene (hERG) potassium channel (human)
units_of_measure: %
observed_measurement: 8.37

compound: Cc1ccc(N2C(=O)c3ccccc3C2(O)c2ncc[nH]2)cc1 (centres unmarked)
target_under_test: human ether-à-go-go-related gene (hERG) potassium channel (human)
units_of_measure: %
observed_measurement: 15

compound: O=C(N/N=C/c1cccc(O)c1)c1ccc(COc2cccc3cccnc23)cc1
target_under_test: human ether-à-go-go-related gene (hERG) potassium channel (human)
units_of_measure: %
observed_measurement: 22.8

compound: CC1=C(C(=O)OCC(C)C)C2(O)C(=O)c3ccccc3C2(O)N1 (centres unmarked)
target_under_test: human ether-à-go-go-related gene (hERG) potassium channel (human)
units_of_measure: %
observed_measurement: 3.4

compound: COc1ccccc1NC(=O)COC(=O)c1ccccc1C(=O)N1CCN(c2ccccc2)CC1
target_under_test: human ether-à-go-go-related gene (hERG) potassium channel (human)
units_of_measure: %
observed_measurement: -42.3

compound: CCC(=O)Nc1nnc(S(=O)(=O)N2CCCC2)s1
target_under_test: human ether-à-go-go-related gene (hERG) potassium channel (human)
units_of_measure: %
observed_measurement: 8.85

compound: CC(=O)c1cccc(CN(C)CC2CCCN(CCc3ccccc3C)C2)c1 (centres unmarked)
target_under_test: human ether-à-go-go-related gene (hERG) potassium channel (human)
units_of_measure: %
observed_measurement: -28.8

compound: CC(C)C(C(=O)Nc1ccccc1F)N1C(=O)c2ccccc2C1=O (centres unmarked)
target_under_test: human ether-à-go-go-related gene (hERG) potassium channel (human);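 also: peak tail current of the secondary pulse compared with the same well before compound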
units_of_measure: %
observed_measurement: -3.78

compound: Cc1nn(C2CCS(=O)(=O)C2)c(Cl)c1/C=C/C(=O)OCC(=O)Nc1ccc2c(c1)OCO2 (centres unmarked)
target_under_test: human ether-à-go-go-related gene (hERG) potassium channel (human);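 also: peak tail current of the secondary pulse compared with the same well before compound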
units_of_measure: %
observed_measurement: 7.01

compound: C/C(=N/NC(=O)c1ccc2c(c1)OCO2)c1ccc(NC(=O)c2ccc(F)cc2)cc1
target_under_test: human ether-à-go-go-related gene (hERG) potassium channel (human);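 also: peak tail current of the secondary pulse compared with the same well before compound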
units_of_measure: %
observed_measurement: 9.33

compound: CCc1ccccc1N(CC(=O)NCc1ccco1)C(=O)CCC(=O)Nc1nccs1
target_under_test: human ether-à-go-go-related gene (hERG) potassium channel (human);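 also: peak tail current of the secondary pulse compared with the same well before compound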
units_of_measure: %
observed_measurement: 0.493
